Reference source: patent US12018066

studyTarget: SARS-CoV-2 spike protein receptor binding domain (RBD2) (SARS-CoV-2, UniProt P0DTC2 319-537)
protocolDetails: SPR
pKd: −log10 of the molar value.
Each item that follows carries a reported pKd.
measuredAttribute: pKd

[
  {
    "binder": "S01 IgG1 (antibody, V domains shown, also called 501) VH: QVQLVESGGGLVKPGGSLRLSCAASGFTVGSNYMSWVRQAPGKGLEWVSVIYSGGSTYYADSVKGRFTISRDNSKNTLYLQMNSLRAEDTAVYYCARGSSGAWYFDLWGRGTLVTVSS VL: EIVMTQSPSSLSASVGDSVTITCQASQDISNYLNWYQQKPGKAPKLLIYDASNLETGVPSRFSGGGSGTDFTLTITSLQPEDIATYYCQQYDNFPPTFGPGTKVDIK",
    "numericValue": 6.77
  },
  {
    "binder": "E01 minibody (scFv-Fc) (Fc fusion, also called E1) SYELTQPPSVSVAPGETARITCGGDNIGRRHVHWYQQKPGQAPVLVIYDDSDRPSGIPDRFSGSNSGNTATLTIGRVEAGDEADYYCQVWGSSNDPHVFGTGTKLTVLSGGSTITSNNVYYTKLSSSGTQVQLQQWGAGLLKPSETLSLKCAVYGGSFSGYYWGWIRQSTGKGLEWIGEINRSGSTNYNPSLKSRVTISVDTSKNQFSLKLSSVTAADTAVYYCARGGARYYYGSGSYRSTPRPYYFDYWGQGTLVTVSS",
    "numericValue": 7.67
  },
  {
    "binder": "B04 IgG1 (antibody, V domains shown) VH: QVQLVESGAEVKKPGASVKVSCKASGYTFTRYYMHWVRQAPGQGLEWMGIINPSGGTTSYAQKFQGRVTMTRDTSTSTVYMELSSLRSEDTAVYYCARSFGELTSFDYWGQGTLVTVSS VL: SYVLTQPPSVSVAPGKTARITCGGNNIGIRSVHWYQQKPGQAPVLVIYYDSDRPSGIPERFSGSKSGNTATLTISRVEAGDEADYYCQVWDSSSDHPVFGGGTKLTVL",
    "numericValue": 6.68
  },
  {
    "binder": "E01 IgG1 (antibody, V domains shown, also called E1) VH: QVQLQQWGAGLLKPSETLSLKCAVYGGSFSGYYWGWIRQSTGKGLEWIGEINRSGSTNYNPSLKSRVTISVDTSKNQFSLKLSSVTAADTAVYYCARGGARYYYGSGSYRSTPRPYYFDYWGQGTLVTVSS VL: SYELTQPPSVSVAPGETARITCGGDNIGRRHVHWYQQKPGQAPVLVIYDDSDRPSGIPDRFSGSNSGNTATLTIGRVEAGDEADYYCQVWGSSNDPHVFGTGTKLTVL",
    "numericValue": 7.05
  },
  {
    "binder": "B04 minibody (scFv-Fc) (Fc fusion) SYVLTQPPSVSVAPGKTARITCGGNNIGIRSVHWYQQKPGQAPVLVIYYDSDRPSGIPERFSGSKSGNTATLTISRVEAGDEADYYCQVWDSSSDHPVFGGGTKLTVLSGGSTITSYNVYYTKLSSSGTQVQLVESGAEVKKPGASVKVSCKASGYTFTRYYMHWVRQAPGQGLEWMGIINPSGGTTSYAQKFQGRVTMTRDTSTSTVYMELSSLRSEDTAVYYCARSFGELTSFDYWGQGTLVTVSS",
    "numericValue": 7.25
  }
]
